Let's look at some compounds and their measured TGI.
# Test system: OVCAR-5 ovarian
# procedure_details: NCI tumour cell line growth inhibition, 48 h

Consider the following illustrative entries.
compound: O=C1C=CC(=O)N1n1c(-c2ccccc2)n[nH]c1=O
TGI: > 100 µM
--
compound: Cc1ccc(-c2cc(-c3ccco3)c(C#N)c(=O)n2C2OC(OC(=O)c3ccccc3)C(OC(=O)c3ccccc3)C2OC(=O)c2ccccc2)cc1 (stereo not given)
TGI: > 100 µM
--
compound: COc1ccc(-c2ccc(-c3ccc(C(=N)N)cn3)o2)cc1
TGI: 23.7 µM
--
compound: Cc1[nH]c(=O)nc(NCCNCCO)c1C(=O)Nc1cccc2cc3ccccc3cc12
TGI: > 100 µM
--
compound: N#C/C(C(=O)Nc1ccc(Cl)cc1)=C(/N)N1CCCC1
TGI: > 100 µM
--
compound: CC1C(=O)OCC2=CCN3CCC(OC(=O)C(C)C1(C)O)C23 (stereo not given)
TGI: > 100 µM

Proceeding to the next compound to report its TGI.
**Q:** Item NC(=S)NNc1c([N+](=O)[O-])cnn(-c2ccccc2)c1=O with OVCAR-5 ovarian - TGI?
**A:** 32.4 µM
